Measured Enzyme Activity Endpoint Assay (purified): Fab'2 accompanies every entry in the list below.
measuredTarget: pooled human IgG
# value in ng/µL; strip the unit string

PRT-112 (protein) MRNATEAYAKEVPHKITSVWTKGVTPLTPEQFRYNGEDVIHAPYLANQGWYDITKTFDGKDNLLCGAATAGNMLHWWFDQNKTEIEAYLKKHPEKQKIIFNNQELFDLKAAIDTKDSQTNSALFNYFKDKAFPNLSARQLGVMPDHVLDMFINGYYLNVFKTQSTDVNRPYQDKDKRGGIFDAVFTRGDQTKLLTARHDLKNKGLNEISTLIKQELTEGKALALSHTYANVSISHVINLWGADFNAEGNLEAIYVTDSDANASIGMKKYFVGVNASGKVAISAKKIEGENIGAQVLGLFTLSSGKDIWQKLS : 435

Note: attention shifts to another entry.
Give the value of Enzyme Activity Endpoint Assay (purified): Fab'2 reported for the following: PRT-321 (protein) MTITSVWTKGVTPPTPEDFRENNEDVLHAPYVANQGWYDITKTFDGKDNLLCGAATAGNMLHWWFDQNKEEIERYLKKHPEKQKIIFGNQELFDVKAAIDTKDSQTNSKLFDYFRDKAFPNLSARQLGVMPDLVLDMFINGYYLNLPKTQSTDVNRPYQDKDKRGGIFDAVFTRGDQTTLLTARHDLKNKGLNEISDLIKQELTEGKALALSHTYANVRINHVINLWGADFDAEGNLIAIYVTDSDANASIGMKKYAVGVNANGKVAISAKKIEGDNIGAQVLGLFTLSTGQDQWQKLS
469
